testedOn: 11β-HSD1 in primary human aortic smooth muscle cells (AoSMC) (Homo sapiens)
Construct: containing 12 ng/mL hTNFα to induce expression of 11β-HSD1; endogenous in cells
Sequence (P28845 whole entry): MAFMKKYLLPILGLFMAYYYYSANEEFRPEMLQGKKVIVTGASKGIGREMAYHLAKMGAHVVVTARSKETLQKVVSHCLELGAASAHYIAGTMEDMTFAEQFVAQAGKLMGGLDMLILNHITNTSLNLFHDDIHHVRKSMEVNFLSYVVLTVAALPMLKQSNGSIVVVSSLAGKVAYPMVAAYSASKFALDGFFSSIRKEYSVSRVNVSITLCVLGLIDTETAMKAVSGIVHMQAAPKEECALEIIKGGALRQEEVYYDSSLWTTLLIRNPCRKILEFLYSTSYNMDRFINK
assayOverview: Human Aortic Smooth Muscle Cell Assay (cortisone to cortisol conversion)
cond: AoSMC induced with hTNFα; cortisol by time resolved immunoassay
Parameter IC50: see the listing below.
reportedProperty: IC50

[
  {
    "compound": "O=C(c1ccc(-c2cc(Cl)c(C[C@@H]3CCN(C4CC=CCC4)C3=O)c(Cl)c2)cc1)N1CCC(C(F)(F)F)CC1 (stereo partly drawn) [Example 92]",
    "observedMeasurement": "36.8 nM"
  },
  {
    "compound": "O=C(c1ccc(-c2cc(Cl)c(CC3CCN(C4CCCCC4)C3=O)c(Cl)c2)cc1)N1CCNCC1 (stereo not drawn) [Example 49]",
    "observedMeasurement": "11.4 nM"
  },
  {
    "compound": "COCCN(CCOC)C(=O)c1ccc(-c2cc(Cl)c(CC3CCN(C4CCCCC4)C3=O)c(Cl)c2)cc1 (stereo not drawn) [Example 5]",
    "observedMeasurement": "6.4 nM"
  },
  {
    "compound": "O=C(c1ccc(-c2cc(Cl)c(CC3CCN([C@H]4CC[C@@H](O)CC4)C3=O)c(Cl)c2)cc1)N1CCS(=O)(=O)CC1 (stereo partly drawn) [Example 74]",
    "observedMeasurement": "6 nM"
  },
  {
    "compound": "O=C(c1ccc(-c2cc(Cl)c(C[C@@H]3CCN(C4CCOCC4)C3=O)c(Cl)c2)cc1)N1CCS(=O)(=O)CC1 [Example 99]",
    "observedMeasurement": "72.8 nM"
  },
  {
    "compound": "O=C(c1ccc(-c2cc(Cl)c(CC3CCN(C4CCCCC4)C3=O)c(Cl)c2)cc1)N1CCOCC1 (stereo not drawn) [Example 4]",
    "observedMeasurement": "4.3 nM"
  }
]
